system: YANK2; construct: gene STK32B; details: concentration: 1 μM, replicates: in singlicate; n = 1;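 note: KINOMEscan kinase panel screen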
reported_endpoint: %Inh (%)
A number alone suffices; assume %.

The molecule CSc1ccc(NC2=C(c3ccccc3Cl)C(=O)NC2=O)cc1 showed %Inh equal to 0

Reported %Inh for Cl.c1ccc(Cn2ncc3cc(Nc4ncnc5ccccc45)ccc32)cc1 was 0

Recorded %Inh (molecule FC(F)(F)c1cc(Nc2nccc(-c3c(-c4ccc(Cl)cc4)nn4ncccc34)n2)ccc1Cl ): 0

response.value for Clc1ccc(-c2cc(-c3c[nH]nc3-c3ccccn3)ccn2)cc1 (field: %Inh) = 0

Form field %Inh, entry C[C@H]1CC[C@@H](C(=O)Nc2ccccc2)CN1c1cc(-c2ccc3c(N)n[nH]c3c2)nc(N)n1 : 0

Just so you know, measured %Inh for Fc1cccc(COc2ccc(Nc3ncnc4sc(-c5ccc[nH]5)cc34)cc2Cl)c1 came out at 34

O=C(c1ccc(-c2cc(-c3c[nH]nc3-c3ccccn3)ccn2)cc1)N1CCCC1 has a reported %Inh of 13

According to the records, this molecule Nc1nc(-c2cccnc2)c(-c2ccnc3ccccc23)s1 displays %Inh of 18

What the record says about O=C(Nc1n[nH]c2nc(-c3ccco3)c(Br)cc12)c1ccc(CN2CCCC2)cc1.O=C(O)[C@H](O)[C@@H](O)C(=O)O : %Inh is 0

# %Inh (molecule: OCCOCCn1ccc2ncnc(Nc3ccc(Oc4cccc(Cl)c4)c(Cl)c3)c21 ) is 0

// recorded %Inh for Cc1cc(N2CCC(NS(=O)(=O)c3ccc(F)cc3)CC2)nc(Nc2cccc(C#N)c2)n1.O=C(O)C(F)(F)F : 1

The recorded %Inh for CC(C)(C)OC(=O)NC1CCCN(c2cc(-c3ccc4c(N)n[nH]c4c3)nc(N)n2)C1 (stereo not shown) is 0

Lookup result for CC(C)(C)c1ccc(-n2cnc3c(N)ncnc32)cc1 ; measured %Inh: 11

Sure, the documented %Inh for Cc1cccc(-c2nc(Nc3ccc4[nH]nnc4c3)c3ccccc3n2)n1 is 0

Recorded result, Nc1nccc2scc(-c3ccc4c(c3)CCN4C(=O)Cc3cc(F)ccc3F)c12 , %Inh: 0

%Inh for Cl.Cl.c1ccc(-c2cc3ccncc3cc2OC2CCNCC2)cc1 is 0

The molecule identified as CCc1nc(-c2cccc(C)c2)c(-c2ccnc(NC(=O)c3ccccc3)c2)s1 registered its %Inh at 41

Summary for this molecule, Cn1cc(-c2ccc3c(c2)CCN3C(=O)Cc2cccc(C(F)(F)F)c2)c2c(N)ncnc21 : %Inh is 0

Entry CCC(CC)(CC)n1cnc2c(N)ncnc21 — recorded %Inh = 12
